Source: patent US20240024488A1

# Tested system: HiBit-BRG1 fusion protein (Homo sapiens, UniProt P51532)
# Construct: expressed in transfected cells
# Sequence (P51532 whole entry, the tested form may be a part): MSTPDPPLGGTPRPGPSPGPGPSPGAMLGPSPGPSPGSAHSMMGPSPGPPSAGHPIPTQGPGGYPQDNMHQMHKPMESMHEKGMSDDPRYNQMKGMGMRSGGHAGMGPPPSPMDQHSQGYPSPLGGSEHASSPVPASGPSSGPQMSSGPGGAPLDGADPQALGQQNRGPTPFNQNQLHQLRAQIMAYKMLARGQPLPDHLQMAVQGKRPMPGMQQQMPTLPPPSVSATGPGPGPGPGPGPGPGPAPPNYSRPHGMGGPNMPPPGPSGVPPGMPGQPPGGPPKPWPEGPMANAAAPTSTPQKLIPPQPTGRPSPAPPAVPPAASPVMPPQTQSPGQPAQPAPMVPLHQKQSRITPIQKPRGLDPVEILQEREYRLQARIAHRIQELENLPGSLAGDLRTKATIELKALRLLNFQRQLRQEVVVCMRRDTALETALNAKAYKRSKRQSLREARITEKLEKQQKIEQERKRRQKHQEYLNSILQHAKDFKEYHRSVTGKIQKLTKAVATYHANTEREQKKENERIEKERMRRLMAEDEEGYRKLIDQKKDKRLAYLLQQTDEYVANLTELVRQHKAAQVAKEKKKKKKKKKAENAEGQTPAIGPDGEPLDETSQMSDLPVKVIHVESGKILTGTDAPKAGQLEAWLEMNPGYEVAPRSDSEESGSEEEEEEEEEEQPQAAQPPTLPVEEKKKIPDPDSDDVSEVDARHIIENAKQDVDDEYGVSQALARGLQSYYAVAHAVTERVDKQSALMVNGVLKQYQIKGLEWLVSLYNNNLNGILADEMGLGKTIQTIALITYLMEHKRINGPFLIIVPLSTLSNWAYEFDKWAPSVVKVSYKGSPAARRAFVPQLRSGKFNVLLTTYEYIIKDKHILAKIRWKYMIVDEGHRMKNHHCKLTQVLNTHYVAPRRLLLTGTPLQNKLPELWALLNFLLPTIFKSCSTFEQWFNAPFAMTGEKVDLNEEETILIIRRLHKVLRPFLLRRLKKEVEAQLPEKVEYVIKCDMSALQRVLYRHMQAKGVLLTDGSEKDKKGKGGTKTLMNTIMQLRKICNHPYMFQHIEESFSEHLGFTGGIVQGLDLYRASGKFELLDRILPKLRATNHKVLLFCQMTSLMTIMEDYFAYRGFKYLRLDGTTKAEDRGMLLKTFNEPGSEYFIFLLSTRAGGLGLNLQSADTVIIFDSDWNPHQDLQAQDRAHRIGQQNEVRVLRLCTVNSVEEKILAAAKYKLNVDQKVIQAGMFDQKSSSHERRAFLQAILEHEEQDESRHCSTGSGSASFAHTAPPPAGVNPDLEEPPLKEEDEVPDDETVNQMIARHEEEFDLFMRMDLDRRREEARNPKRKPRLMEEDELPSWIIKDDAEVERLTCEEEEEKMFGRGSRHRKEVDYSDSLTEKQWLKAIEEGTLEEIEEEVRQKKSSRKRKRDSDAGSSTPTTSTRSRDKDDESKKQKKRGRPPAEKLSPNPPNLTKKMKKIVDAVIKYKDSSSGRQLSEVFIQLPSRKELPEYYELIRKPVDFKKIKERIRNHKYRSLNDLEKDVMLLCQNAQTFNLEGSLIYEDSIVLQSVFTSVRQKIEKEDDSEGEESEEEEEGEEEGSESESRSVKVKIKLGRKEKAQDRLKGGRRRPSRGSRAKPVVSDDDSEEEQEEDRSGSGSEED
# Procedure summary: HiBiT-BRG1 cell-based degradation assay (Nano-Glo HiBiT Lytic Detection, 24 h)
# Experimental context: HeLa cell line expressing HiBit-BRG1 and LgBit, read-out: BRG1 HiBit Degradation Maximum (%)
Dmax overview

Entry under test: Cc1ncsc1-c1ccc([C@H](C)NC(=O)[C@@H]2C[C@@H](O)CN2C(=O)[C@@H](c2cc(OCCNC(=O)C(=O)N3CC(c4cc5cc(-c6ccccc6O)nnc5[nH]4)C3)no2)C(C)C)cc1 (racemic) . Its Dmax was > 50%

// Dmax value for O=C1CCC(N2C(=O)c3ccc(NCCOCCOCCC(=O)N4CC(c5cc6cc(-c7ccccc7O)nnc6[nH]5)C4)cc3C2=O)C(=O)N1 (centres unmarked) : < 50%

Recorded Dmax (molecule Cc1ncsc1-c1ccc([C@H](C)NC(=O)[C@@H]2C[C@@H](O)CN2C(=O)[C@H](c2cc(C3CN(C(=O)c4cc5cc(-c6ccccc6O)nnc5[nH]4)C3)no2)C(C)C)cc1 (single isomer, unassigned) ): < 50%

Input Cc1ncsc1-c1ccc([C@H](C)NC(=O)[C@@H]2C[C@@H](O)CN2C(=O)[C@@H](c2cc(OCCN3CCC(c4[nH]c5nnc(-c6ccccc6O)cc5c4C)CC3)no2)C(C)C)cc1 (racemic) . Output Dmax: > 75%

Form field Dmax, entry Cc1ncsc1-c1ccc(CNC(=O)[C@@H]2C[C@@H](O)CN2C(=O)[C@@H](NC(=O)CCCC(=O)N2CC(c3c[nH]c4nnc(-c5ccccc5O)cc34)C2)C(C)(C)C)cc1 : < 50%
